Attribute: EC50
Target: T1, human MICA allele MICA*007 (human, UniProt Q29983 24-297)
T1 construct: Expressed on transfected C1R cells; also called MICA*07; C1R-MICA*007
T1 chain: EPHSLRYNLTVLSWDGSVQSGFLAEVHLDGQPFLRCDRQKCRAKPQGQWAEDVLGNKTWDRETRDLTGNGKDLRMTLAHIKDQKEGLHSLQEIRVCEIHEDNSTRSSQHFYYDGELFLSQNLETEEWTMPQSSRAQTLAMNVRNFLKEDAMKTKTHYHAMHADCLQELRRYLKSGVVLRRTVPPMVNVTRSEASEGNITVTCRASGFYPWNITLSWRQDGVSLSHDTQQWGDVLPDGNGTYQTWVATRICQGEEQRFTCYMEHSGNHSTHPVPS
Assay: flow cytometry, C1R-MICA*007 transfectant cells
Please state the figure in µg/mL; there is no need to write the unit.

>  <Binder>
mAb12 (antibody, V domains shown, Produced in CHO cells as human IgG1 with huCk constant domain) VH: QVQLQESGPGLVKPSETLSLTCTVSGYSITSDYAWNWIRQPPGKGLEWMGFVSYSGTTKYNPSLKSRITISRDTSENQFSLKLSSVTAADTAVYYCARGYGFDYWGQGTTVTVSS VL: EIVLTQSPATLSLSPGERATLSCSATSSISSIYFHWYQQKPGQAPRLLIYRTSNLASGIPARFSGSGSGTDYTLTISSLEPEDVAVYYCQQGTTIPFTFGQGTKLEIK

>  <Unit Abbreviation>
µg/mL

>  <Data Value>
0.086

$$$$
>  <Binder>
mAb4 (antibody, V domains shown, Produced in CHO cells as human IgG1 with huCk constant domain) VH: QVQLQESGPGLVKPSETLSLTCTVSGYSITSDYAWNWIRQPPGKGLEWMGFVSYSGTTKYNPSLKSRVTISRDTSKNQFSLKLSSVTAADTAVYYCARGYGFDYWGQGTTVTVSS VL: EIVLTQSPATLSLSPGERATLSCSATSSISSIYFHWYQQKPGQAPRLLIYRTSNLASGIPARFSGSGSGTDYTLTISSLEPEDFAVYYCQQGTTIPFTFGQGTKLEIK

>  <Unit Abbreviation>
µg/mL

>  <Data Value>
0.0875

$$$$

Let us move to another entry and its EC50.
Item mAb3 (antibody, V domains shown, Produced in CHO cells as human IgG1 with huCk constant domain) VH: QVQLQESGPGLVKPSETLSLTCTVSGYSITSDYAWNWIRQPPGKGLEWIGFVSYSGTTKYNPSLKSRVTISRDTSKNQFSLKLSSVTAADTAVYYCARGYGFDYWGQGTTVTVSS VL: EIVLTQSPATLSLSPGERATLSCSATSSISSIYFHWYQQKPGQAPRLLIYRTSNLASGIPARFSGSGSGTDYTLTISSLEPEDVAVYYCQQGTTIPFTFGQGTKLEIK has what recorded EC50?
0.0612

Data provenance: patent US20170267764A1
